Just for reference, patent US20240190999A1 is where these values come from.

- system_tested: T1, biotinylated human 4-1BB (bio.h4-1BB) (human, UniProt Q07011 24-186, limits assumed, biotinylated (site not stated))
- T1 construct: also called CD137
- protocol_details: SPR (ProteOn XPR36), biotinylated h4-1BB immobilised on GLC chip, construct as analyte
pKd: −log10 of the molar value.
pKd values, listed per item
measurement_label: pKd

[[record]]
binder = "bispecific construct #44 (designed binder, also called FAP-4-1BB bispecific construct #44) MRGSHHHHHHGSDLGEKLLVAALYGQDDEVRILLAAGADVNAKDQWGLTPLHKAALQGHLEIVEVLLKAGADVNAKDERGHTPLHWAARFGHLEIVEVLLKAGADVNAQDQKGYTPADLAALWGHEDIAEVLQKAAGSPTPTPTTPTPTPTTPTPTPTGSDLGQKLLKAAQEGQDDEVRELLKAGADVNAKDLRGITPLHVAAWQGHLEIVEVLLKAGADVNAKDSKGETPLHLAAFRGHLEIVEVLLKAGADVNAQDQQGETPADLAALAGHVDIAEVLQKLN"
readout_value = 8.84

[[record]]
binder = "bispecific construct #45 (designed binder, 56 is used; also called FAP-4-1BB bispecific construct #45) MRGSHHHHHHGSDLGEKLLVAALYGQDDEVRILLAAGADVNAKDQWGLTPLHKAALQGHLEIVEVLLKAGADVNAKDERGHTPLHWAARFGHLEIVEVLLKAGADVNAQDQKGYTPADLAALWGHEDIAEVLQKAAGSPTPTPTTPTPTPTTPTPTPTGSDLGDKLLHAAYYGQDDEVRILLAAGADVNAKDTQGLTPLHLAAAIGHLEIVEVLLKAGADVNAKDAYGETPLHLVASRGHLEIVEVLLKAGADVNAQDYSGRTPADLAAEYGHEDIAEVLQKLN"
readout_value = 8.83

[[record]]
binder = "bispecific construct #49 (designed binder, 56 is used; also called FAP-4-1BB bispecific construct #49) MRGSHHHHHHGSDLGEKLLVAALYGQDDEVRILLAAGADVNAKDQWGLTPLHKAALQGHLEIVEVLLKAGADVNAKDERGHTPLHWAARFGHLEIVEVLLKAGADVNAQDQKGYTPADLAALWGHEDIAEVLQKAAGSPTPTPTTPTPTPTTPTPTPTGSDLGKKLLVAANVGQDDEVRILLAAGADVNAKDYHGYTPLHHAATYGHLEIVEVLLKAGADVNAKDQTGLTPLHLAAAKGHLEIVEVLLKAGADVNAQDHHGYTPADLAAFVGHEDIAVVLQKLN"
readout_value = 9.07

[[record]]
binder = "bispecific construct #47 (designed binder, 56 is used; also called FAP-4-1BB bispecific construct #47) MRGSHHHHHHGSDLGEKLLVAALYGQDDEVRILLAAGADVNAKDQWGLTPLHKAALQGHLEIVEVLLKAGADVNAKDERGHTPLHWAARFGHLEIVEVLLKAGADVNAQDQKGYTPADLAALWGHEDIAEVLQKAAGSPTPTPTTPTPTPTTPTPTPTGSDLGKKLLEAARAGQDDEVRELLKAGADVNAKDTYGETPLHLAAWKGHLEIVEVLLKAGADVNAKDSIGITPLHVAAHHGHLEIVEVLLKAGADVNAKDKWGRTPLHLAALLGHLEIAEVLLKAGADVNAQDKSGKTPADLAADAGHDDIAEVLQKLN"
readout_value = 9.11

[[record]]
binder = "bispecific construct #46 (designed binder, 56 is used; also called FAP-4-1BB bispecific construct #46) MRGSHHHHHHGSDLGEKLLVAALYGQDDEVRILLAAGADVNAKDQWGLTPLHKAALQGHLEIVEVLLKAGADVNAKDERGHTPLHWAARFGHLEIVEVLLKAGADVNAQDQKGYTPADLAALWGHEDIAEVLQKAAGSPTPTPTTPTPTPTTPTPTPTGSDLGRKLLQAAQLGQDDEVRELLKAGADVNAKDSRGITPLHVAAWQGHLEIVEVLLKASADVNAKDHAGITPLHLAAFLGHLEIVEVLLKAGADVNAQDQEGRTPADLAALQGHEDIAKVLQKLN"
readout_value = 8.94

